The entries below are paired with their reported U87MG IC50.
System: U87MG (Human malignant glioblastoma cell)
Assay: In vitro anti-tumor cellular activity (MTT), U87MG
Assay type: cell-based
Conditions: 72 hours
# output: bare number, implied unit µg/mL

Example results:
COc1cc2c(Oc3ccc(NC(=O)N/N=C/c4ccc(F)cc4)cc3F)ccnc2cc1OCCCN1CCC(C)CC1 [Example 10]; 0.019
COc1cc2c(Oc3ccc(NC(=S)NN=Cc4ccc(F)cc4Cl)cc3F)ccnc2cc1OCCCN1CCN(C)CC1 [Example 42]; 1.0
N.N.[Cl][Pt][Cl] [Cisplatin, reference compound]; 0.19
CCC(=NNC(=O)Nc1ccc(Oc2ccnc3cc(OCCCN4CCCCC4)c(OC)cc23)c(F)c1)c1ccccc1 [Example 30]; 0.051
COc1cc2c(Oc3ccc(C=NNC(=S)Nc4ccc(Cl)c(C(F)(F)F)c4)cc3F)ccnc2cc1OCCCN1CCC(C)CC1 [Example 64]; 1.7
COc1cc2c(Oc3ccc(NC(=S)N/N=C/c4ccccc4[N+](=O)[O-])cc3F)ccnc2cc1OCCCN1CCCC1 [Example 32]; 1.2

Incoming: Using the record for COc1cc2c(Oc3ccc(NC(=O)N/N=C/c4ccc(Cl)cc4Cl)cc3F)ccnc2cc1OCCCN1CCCC1 [Example 19] , report its U87MG IC50.
Outgoing: 1.9
